experiment: chemical genetic growth profiling, strain panel (AID 1159580);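 note: tested at 20 µM; growth read once vehicle control cultures reached saturation at 30 °C; lower values mean less growth of the strain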; conditions: S. cerevisiae deletion strains, growth OD, locus YDL134C, strain PPH21
Out of some 5,500 compounds screened, about 2,000 (36%) were called active. Roughly 18% stayed inconclusive and do not appear here. Cut-off read from the data, not from the text of the source: active = normalized growth mostly below about 0.91 (no sharp cut-off); inconclusive = no clear call, values can overlap the other calls; inactive = mostly above about 0.92. The list shows a part of the results.
Outcome codes: active, inactive

COMPOUND	DISCRETE LABEL
Cc1ccc(C(=O)c2ccc(CC(=O)O)n2C)cc1	inactive
Cc1cc(/C=C/c2ccc3cc(N(C)C)ccc3[n+]2C)c(C)n1-c1ccccc1	active
Cc1onc(-c2ccccc2)c1-c1ccc(S(N)(=O)=O)cc1	inactive
C1N2CN3CN1CN(C2)C3	inactive
COC1=CC(=O)OC(CCc2ccc(OC)c(OC)c2)C1 (stereo not given)	inactive
